- system_name: T1, wildtype feline IL-31 protein (Feline_IL31_wildtype) (feline)
- T1 construct: Full length feline IL-31 with C-terminal His tag, secreted from ExpiCHO cells; also called fIL-31
- T1 chain: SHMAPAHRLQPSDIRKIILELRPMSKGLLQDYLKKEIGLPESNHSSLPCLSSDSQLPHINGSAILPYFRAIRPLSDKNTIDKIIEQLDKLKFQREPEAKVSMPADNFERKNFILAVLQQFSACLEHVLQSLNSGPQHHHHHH
- procedure_summary: SPR (Biacore), IL-31 on chip, 1:1 fit
Recorded log10(koff) by entry
// stored as log10 of koff expressed in s⁻¹

Feline 15H05 1.1 V43I (antibody, V domains shown) VH: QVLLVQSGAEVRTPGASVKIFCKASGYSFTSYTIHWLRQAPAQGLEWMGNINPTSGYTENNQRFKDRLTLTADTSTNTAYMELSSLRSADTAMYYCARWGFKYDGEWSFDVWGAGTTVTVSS VL: EIQMTQSPSSLSASPGDRVTITCRASQGISIWLSWYQQKPGKIPKLLIYKASNLHIGVPSRFSGSGSGTDFTLTISSLEPEDAATYYCLQSQTYPLTFGGGTKLEIK | -3.40
Feline 15H05 1.1 L46V (antibody, V domains shown) VH: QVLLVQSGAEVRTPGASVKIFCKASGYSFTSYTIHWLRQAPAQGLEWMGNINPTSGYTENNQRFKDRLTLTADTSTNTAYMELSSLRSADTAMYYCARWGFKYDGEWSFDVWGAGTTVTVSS VL: EIQMTQSPSSLSASPGDRVTITCRASQGISIWLSWYQQKPGKVPKVLIYKASNLHIGVPSRFSGSGSGTDFTLTISSLEPEDAATYYCLQSQTYPLTFGGGTKLEIK | -3.09
Feline 15H05 1.1 FW3 (antibody, V domains shown) VH: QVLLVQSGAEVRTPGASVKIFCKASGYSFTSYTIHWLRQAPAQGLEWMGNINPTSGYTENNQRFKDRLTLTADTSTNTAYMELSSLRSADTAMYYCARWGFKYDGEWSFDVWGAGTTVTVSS VL: EIQMTQSPSSLSASPGDRVTITCRASQGISIWLSWYQQKPGKVPKLLIYKASNLHIGVPPRFSGSGSGTHFTLTITSLQPEDIATYYCLQSQTYPLTFGGGTKLEIK | -4.92
Feline 15H05 1.1 K42N (antibody, V domains shown) VH: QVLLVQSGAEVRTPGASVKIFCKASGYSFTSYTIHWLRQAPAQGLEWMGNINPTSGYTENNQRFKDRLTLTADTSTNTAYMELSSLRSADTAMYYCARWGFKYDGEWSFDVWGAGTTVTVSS VL: EIQMTQSPSSLSASPGDRVTITCRASQGISIWLSWYQQKPGNVPKLLIYKASNLHIGVPSRFSGSGSGTDFTLTISSLEPEDAATYYCLQSQTYPLTFGGGTKLEIK | -1.96

Here is another binder to look at.
Query :: Given the binder Feline 15H05 3.2 (antibody, V domains shown, Feline heavy and kappa constant regions) VH: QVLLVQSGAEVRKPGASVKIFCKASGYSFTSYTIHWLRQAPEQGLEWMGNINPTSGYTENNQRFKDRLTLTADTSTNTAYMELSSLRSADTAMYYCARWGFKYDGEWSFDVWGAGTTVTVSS VL: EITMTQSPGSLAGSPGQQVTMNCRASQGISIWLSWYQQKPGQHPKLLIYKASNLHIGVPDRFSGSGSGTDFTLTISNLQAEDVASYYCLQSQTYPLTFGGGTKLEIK , what is its reported log10(koff)?
Result :: -2.78
